Data provenance: paper PMC10144242

What follows is a collection of Ki values obtained with mushroom tyrosinase (Agaricus bisporus).
Sequence (C7FF04 1-392 limits assumed): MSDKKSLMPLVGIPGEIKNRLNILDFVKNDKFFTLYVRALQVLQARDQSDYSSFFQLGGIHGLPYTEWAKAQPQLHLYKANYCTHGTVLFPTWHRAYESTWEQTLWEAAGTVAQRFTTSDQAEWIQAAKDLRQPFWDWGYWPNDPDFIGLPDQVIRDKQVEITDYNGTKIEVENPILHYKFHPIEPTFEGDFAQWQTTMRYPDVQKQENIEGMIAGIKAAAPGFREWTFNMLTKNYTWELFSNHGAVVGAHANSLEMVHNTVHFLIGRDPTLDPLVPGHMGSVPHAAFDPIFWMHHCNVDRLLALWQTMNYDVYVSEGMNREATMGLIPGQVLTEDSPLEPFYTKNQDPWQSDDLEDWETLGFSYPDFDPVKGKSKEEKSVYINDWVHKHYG
Write the value in µM as a bare number.

Given O=C1N=C(c2ccccc2)S/C1=C\c1ccc(O)cc1 , respond with its Ki.
8.89

Please report the measured Ki for O=C1N=C(c2ccccc2)S/C1=C\c1ccc(O)c(O)c1
4.8

Give Ki for O=C1N=C(c2ccccc2)S/C1=C\c1ccc(O)cc1O
0.1

###

assay: DPPH radical scavenging assay; conditions: 1 mM, 30 min in the dark
DPPH radical scavenging activity less than 60% is yes; DPPH radical scavenging activity greater than or equal to 60% is no.

Threshold test, DPPH radical scavenging activity < 60%: O=C1N=C(c2ccccc2)S/C1=C\c1ccc(O)cc1O
no

Strictly below 60%: is that where DPPH radical scavenging activity of O=C1N=C(c2ccccc2)S/C1=C\c1cc(Br)c(O)c(Br)c1 sits?
yes

DPPH radical scavenging activity under 60%? Item: CCOc1cc(/C=C2\SC(c3ccccc3)=NC2=O)ccc1O
yes

is_below(DPPH radical scavenging activity, 60%) for COc1ccc(/C=C2\SC(c3ccccc3)=NC2=O)cc1O ?
yes

Criterion: DPPH radical scavenging activity strictly below 60%. Is it met by O=C1N=C(c2ccccc2)S/C1=C\c1ccc(O)c(Br)c1 ?
yes

Here's an entry: O=C1O[C@H]([C@@H](O)CO)C(O)=C1O [L-Ascorbic acid, L-ascorbic acid, reference compound] . Is its DPPH radical scavenging activity below 60%?
no

# TODO verify DPPH radical scavenging activity < 60% strictly for this compound: O=C1N=C(c2ccccc2)S/C1=C\c1ccc(O)c(O)c1
no

# check: DPPH radical scavenging activity < 60% for O=C1N=C(c2ccccc2)S/C1=C\c1ccc(O)cc1
yes

Confirm or reject: DPPH radical scavenging activity of COc1cc(/C=C2\SC(c3ccccc3)=NC2=O)ccc1O lies strictly below 60%
no
